Every entry's value here was drawn from patent US10953029B2.

target: HIV-1 RT enzyme (Human immunodeficiency virus type 1 group M subtype B, UniProt P04585); construct: Full-length wild-type and 2 mutant RT proteins were expressed in Escherichia coli BL21(DE3) cells and purified; test: RT Polymerase Assay
endpoint: IC50
# include the unit after the value

Ask: Please look up its IC50: C#C[C@]1(COP(=O)(O)OP(=O)(O)OP(=O)(O)O)O[C@@H](n2cc(F)c3c(N)nc(Cl)nc32)C[C@@H]1O [Example 2, triphosphate]
Reply: 490 nM

====

target: UniProt P00813; assay: Adenosine Deaminase (ADA) Half-Life; type: in vitro ADME; conditions: human ADA type 1 (adenosine deaminase) in Tris-HCl buffer, time for 50% conversion to inosine product, Tris-HCl buffer pH 7.5, 40° C., LCMS
Sequence (P00813 whole entry): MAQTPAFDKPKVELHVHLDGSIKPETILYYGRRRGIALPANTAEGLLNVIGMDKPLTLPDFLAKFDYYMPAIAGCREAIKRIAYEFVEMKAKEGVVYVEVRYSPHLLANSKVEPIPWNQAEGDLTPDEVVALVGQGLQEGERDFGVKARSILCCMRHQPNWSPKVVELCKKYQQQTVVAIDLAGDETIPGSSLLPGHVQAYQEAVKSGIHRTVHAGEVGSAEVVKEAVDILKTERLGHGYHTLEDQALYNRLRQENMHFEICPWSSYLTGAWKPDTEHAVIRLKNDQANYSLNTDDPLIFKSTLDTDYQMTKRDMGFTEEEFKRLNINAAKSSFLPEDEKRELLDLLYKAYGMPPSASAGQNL
endpoint: half-life

In [3]: df
Out[3]:
                                   molecule    result
0  C#C[C@]1(CO)O[C@@H](n2cnc3c(N)ncnc32)C[C@@H]1O [EDA]  < 60 min

Now look at this one.
Ask: Any idea what half-life came out for Nc1ncnc2c1ncn2[C@H]1C[C@H](O)[C@@H](CO)O1 [Deoxy- adenosine, deoxyadenosine] on UniProt P00813?
Reply: < 10 min
